Target: T1, ArcR-His6 (Staphylococcus aureus TZ0912, UniProt Q2FUY1 1-234)
T1 sequence: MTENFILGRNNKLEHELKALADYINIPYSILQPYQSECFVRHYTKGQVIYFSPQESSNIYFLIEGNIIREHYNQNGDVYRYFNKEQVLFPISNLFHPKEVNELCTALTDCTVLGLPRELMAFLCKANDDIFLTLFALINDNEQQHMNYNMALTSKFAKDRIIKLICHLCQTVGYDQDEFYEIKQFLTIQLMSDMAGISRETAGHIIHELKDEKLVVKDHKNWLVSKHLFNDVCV
Assay: EMSA; 7.2 uM; EMSA: 750 mM NaCl, 50 mM Tris-HCl pH 7.4, 0.5 mM DTT, 0.5 mM EDTA (as printed for binding buffer), 20 ng probe in 20 uL, 30 min 37 C; 6% gel, 0.5x TBE
Settings: protein: recombinant; tags: His6 (pET28a NdeI/XhoI); chain copies: 2; label: 5'-FAM; blunt
readout label: binding result

# binder, value
records = [
    ("Pcas-142-103 (Table S2: -161-122) (dsDNA) DNA 1: TAATGAGAATGTGAAGTTATTAGTAAACTTAGCAAAAGAT DNA 2: ATCTTTTGCTAAGTTTACTAATAACTTCACATTCTCATTA", "binds"),
    ("Pcrispr1-26+24 (dsDNA) DNA 1: CTTAATATATAGAAAATTATCATAATATTTGTCAAAAAAAGTGACATTTC DNA 2: GAAATGTCACTTTTTTTGACAAATATTATGATAATTTTCTATATATTAAG", "binds"),
    ("Pcas-137-108 (Table S2: -156-127) (dsDNA) DNA 1: AGAATGTGAAGTTATTAGTAAACTTAGCAA DNA 2: TTGCTAAGTTTACTAATAACTTCACATTCT", "binds"),
]
